test-protocol: Decomposition kinetics monitored by UV-Vis spectroscopy
Assay type: physicochemical
assay-setup: AcOH/AcONa buffer, pH 4, pH 4.0, room temperature; read-out: half-life (converted)
metric-name: half-life

>>> meas_value("CO/N=C(\\C)C1(NO)C(=O)N(c2ccccc2)N=C1C (stereo not shown)")
"~1500 min"

----------
test-protocol: Decomposition monitored by 1H NMR spectroscopy (carbanion yield, kinetics, half-life)
Format: physicochemical
assay-setup: PBS, pH 7.4, Condition E: pH 7.4, 37° C., 10% D2O, 0.25M PBS, 100 μL DTPA, 12b (1 equiv.), air (1H NMR)
metric-name: half-life (days)

>>> meas_value("CC1=NN(c2ccccc2)C(=O)C1(C)NO (stereo not shown) [Compound 8a]")
4.17
